- systemName: Androgen receptor (Homo sapiens)
- protocolSummary: qHTS assay for small molecule antagonists of androgen receptor signaling (AID 588516)
- conditionParameters: AR-UAS-bla HEK293, beta-lactamase ratio, antagonist mode, 16 h; series mostly up to 76.8 µM
Records with an inconclusive call do not appear. Calls of active or inactive are those of the source. Calls follow the shape of the dose curve; as a rule, active = well fitted curve in the direction sought with a large enough effect in the signal ratio, with a control signal flat (not every such curve was filed as active); inconclusive = small, poorly fitted or top-dose-only effect, or effect the other way, or a change in a side signal; inactive = no such curve, though single readings can be large or run the other way; the % refers to the signal ratio.
Your response should consist of one outcome taken from 1 for active, -1 for inactive

Q: Name the outcome recorded for "C=C(Cl)Cl" in the assay.
A: -1

Q: Name the outcome recorded for "c1ccc(-c2ccccc2)cc1" in the assay.
A: -1

Q: Name the outcome recorded for "Clc1cccc(C(Cl)(Cl)Cl)n1" in the assay.
A: -1

Q: Name the outcome recorded for "CCN(CC)c1ccccc1" in the assay.
A: -1

Q: Name the outcome recorded for "[O-][Br+2]([O-])O" in the assay.
A: -1

Q: Name the outcome recorded for "S=C=Nc1cccc2ccccc12" in the assay.
A: -1

Q: Name the outcome recorded for "CC(C)(C)OO" in the assay.
A: -1

Q: Name the outcome recorded for "Cc1ccc2ccccc2c1" in the assay.
A: -1

Q: Name the outcome recorded for "C[C@H]1CCCC(=O)CCC/C=C/c2cc(O)cc(O)c2C(=O)O1" in the assay.
A: 1

Q: Name the outcome recorded for "O=NN(CCO)CCO" in the assay.
A: -1

Q: Name the outcome recorded for "Brc1ccccc1" in the assay.
A: -1

Q: Name the outcome recorded for O=S1OCC2C(CO1)C1(Cl)C(Cl)=C(Cl)C2(Cl)C1(Cl)Cl (configuration not stated) in the assay.
A: -1

###

- protocolSummary: Confirmatory qHTS for VERO E6 Cytotoxicity Assay: Counterscreen for SARS-CoV-2 CPE Assay (AID 1508605); also: nearly all actives have a fitted effect of over 60% in size
- conditionParameters: cell viability luminescence; series mostly up to 20 µM
Results filed as inconclusive are left out. The source made the active and inactive calls. Calls follow the shape of the full dose curve.
Your response should consist of one outcome taken from active, inactive

Q: Name the outcome recorded for COc1ccc2sc(NC(c3ccc(OC(F)F)cc3)c3ccc4cccnc4c3O)nc2c1 (centres undefined) in the assay.
A: active

Q: Name the outcome recorded for CCCCCCC(C)(C)c1cc(O)c2c(c1)OC(C)(C)C1CC=C(CO)C[C@H]21 (some centres undefined) in the assay.
A: inactive

Q: Name the outcome recorded for CCOC(=O)N[C@@H]1CC[C@@H]2[C@@H](C1)C[C@H]1C(=O)O[C@H](C)C1[C@H]2/C=C/c1ccc(-c2cccc(F)c2)cn1 (some centres undefined) in the assay.
A: inactive

Q: Name the outcome recorded for CCC(C)C(=O)OC1C(C)C2(O)C(C=C(CO)CC3(O)C(=O)C(C)=CC32)C2C(C)(C)C12OC(=O)C(C)C (centres undefined) in the assay.
A: inactive

###

- protocolSummary: qHTS for differential inhibitors of proliferation of Plasmodium falciparum line Dd2 (AID 1882); also: nearly all actives have a fitted effect of over 65% in size
- conditionParameters: Plasmodium falciparum Dd2 proliferation inhibition; series mostly up to 28.7 µM
Results filed as inconclusive are left out. Active and inactive are the calls of the source. Calls come from the whole dose curve; as a rule, active = well fitted inhibition curve with a large enough effect; inconclusive = small, poorly fitted or top-dose-only effect; inactive = flat fitted curve, though single readings scatter.
Your response should consist of one outcome taken from 1.0 = active, 0.0 = inactive

Q: Name the outcome recorded for "CCCN1CCC[C@@H](c2cccc(C#N)c2)C1" in the assay.
A: 0.0

Q: Name the outcome recorded for "Nc1ncnc2c1ncn2[C@@H]1O[C@H](COP(=O)(O)CP(=O)(O)OP(=O)(O)O)[C@H](O)[C@H]1O" in the assay.
A: 0.0

Q: Name the outcome recorded for "CCCN(CCC)[C@@H]1CCc2c(F)ccc(O)c2C1" in the assay.
A: 1.0

Q: Name the outcome recorded for CCCN1CCc2cc(O)cc3c2C1Cc1ccc(O)c(O)c1-3 (centres undefined) in the assay.
A: 1.0

Q: Name the outcome recorded for CCCC[N+]1(C)C2CC(OC(=O)C(CO)c3ccccc3)CC1C1OC12 (centres undefined) in the assay.
A: 0.0

Q: Name the outcome recorded for C/C=C(/C)C(=O)O[C@H]1C(C)=C2C([C@@H]1OC(=O)CCCCCCC)[C@@](C)(OC(C)=O)C[C@@H](OC(=O)CCC)[C@@]1(O)[C@H]2OC(=O)[C@@]1(C)O (some centres undefined) in the assay.
A: 1.0

Q: Name the outcome recorded for NC(Cn1ccc(=O)[nH]c1=O)C(=O)O (centres undefined) in the assay.
A: 0.0

Q: Name the outcome recorded for "O=C(OC1CCN(CCCl)CC1)C(c1ccccc1)c1ccccc1" in the assay.
A: 1.0

Q: Name the outcome recorded for CN1C[C@H](C(=O)N[C@]2(C)O[C@@]3(O)C4CCCN4C(=O)[C@H](Cc4ccccc4)N3C2=O)C[C@@H]2c3cccc4[nH]cc(c34)C[C@H]21 (some centres undefined) in the assay.
A: 1.0

Q: Name the outcome recorded for "CCNC(=O)[C@H]1O[C@@H](n2cnc3c(N)ncnc32)[C@H](O)[C@H]1O" in the assay.
A: 0.0

Q: Name the outcome recorded for C[C@]12CC[C@H]3[C@@H](CCC4C[C@H](O)CC[C@@]43C)[C@@H]1CC[C@@H]2O (some centres undefined) in the assay.
A: 0.0

Q: Name the outcome recorded for "C[C@@H]1O[C@@H](O[C@H]2C[C@@H](O)[C@]3(CO)[C@H]4[C@H](O)C[C@]5(C)[C@@H]([C@@H]6COC(=O)C6)CC[C@]5(O)[C@@H]4CC[C@]3(O)C2)[C@H](O)[C@H](O)[C@H]1O" in the assay.
A: 0.0

Q: Name the outcome recorded for "C[C@H]1OC[C@@H](C[N+](C)(C)C)O1" in the assay.
A: 0.0

Q: Name the outcome recorded for C[C@]12C=CC(=O)C=C1CCC1C2=CC[C@]2(C)[C@@H](C(=O)CN3CCN(c4cc(N5CCCC5)nc(N5CCCC5)n4)CC3)CC[C@@H]12 (some centres undefined) in the assay.
A: 1.0
